Assay: probe aCHRDL2 binding to arrayed compounds – biochemical, biotinylated probe, 635/667 nm fluorescence, primary screen (AID 1100)
Details: small-molecule microarray, higher = more signal
Response key: Yes means composite z-score >= 0.8; No means composite z-score < 0.8.

compound=C[N+](C)(C)CCCCCCNC(=O)[C@@H]1C[C@@H]2C(=O)NCC(=O)N2[C@@H]1c1cccc(OCCO)c1 qualitative_label=No
compound=COC(=O)[C@@]1(Cc2ccccc2)[C@H]2c3cc(C(=O)N(C)C)n(Cc4ccccn4)c3C[C@H]2CN1C(=O)c1ccccc1 qualitative_label=Yes
compound=COC(=O)[C@@]1(Cc2ccccc2)[C@H]2c3cc(C(=O)N4CCCC4)n(Cc4ccccc4)c3C[C@H]2CN1C(=O)c1ccccc1 qualitative_label=Yes
compound="C=CCC(OC(C)=O)[C@@H]1[C@@H](N(Cc2cccc3ccccc23)C(=O)c2ccc(C)cc2)c2cc(OCCCO)ccc2N1C(=O)c1ccc2ccccc2c1 (stereo not given in full)" qualitative_label=No
compound=COc1ccc([Si](C)(C)[C@@H]2[C@@H](CC(=O)N(CCO)Cc3ccccc3)O[C@]3(C(=O)N(Cc4ccc(N5CCOC5=O)cc4)c4ccccc43)[C@H]2C)cc1 qualitative_label=No
compound=CCOC(=O)C1=CC[C@@H](c2ccc(N(CC)CC)cc2)N(S(=O)(=O)c2ccc(C)cc2)[C@H]1c1ccc([N+](=O)[O-])cc1 qualitative_label=Yes
compound="O=C1C2C=CC(C(O)c3ccc(Br)cc3)N(Nc3ccccc3)C2C(=O)N1c1ccccc1 (stereo not given)" qualitative_label=No
compound=COC(=O)C(CC#Cc1ccc2c(c1)[C@]1(C(=O)N2)[C@H](C(=O)N2CCc3cc(OC)c(OC)cc3C2)[C@H]2C(=O)O[C@H](c3ccccc3)[C@H](c3ccccc3)N2[C@@H]1c1ccc(OCCO)cc1)C(=O)OC qualitative_label=No
compound=COC(=O)[C@H]1N=C(c2ccc(OCCCO)cc2)O[C@H]1c1ccccc1CN=[N+]=[N-] qualitative_label=Yes
compound=COC(=O)[C@@]1(Cc2ccccc2)[C@H]2c3cc(C(=O)N4CCCC4)n(Cc4ccc(OC(F)(F)F)cc4)c3C[C@H]2CN1C(=O)c1ccccc1 qualitative_label=Yes
compound=C=C(/C(=C/C[C@@H](OC(=O)c1ccncc1)c1cccc(OCCO)c1)c1cc(C(=O)OC)ccc1OC)C(C)C qualitative_label=No
compound=COCCCNC(=O)[C@]1(Cc2ccccc2)N=C(c2ccc(OCCCO)cc2)O[C@@H]1c1ccccc1N=[N+]=[N-] qualitative_label=Yes
compound="COc1cc(NN2C(C(O)c3ccc(I)cc3)C=CC3C(=O)N(C)C(=O)C32)cc(OC)c1OC (stereo not given)" qualitative_label=Yes
compound="CN1C(=O)C2C=CC(C(O)C3CCCCC3)N(N(c3ccccc3)c3ccccc3)C2C1=O (stereo not given)" qualitative_label=Yes
compound="CC(C)=CCCC(C)=CC(O)C1C=CC2C(=O)N(c3ccccc3)C(=O)C2N1Nc1ccc([N+](=O)[O-])cc1 (stereo not given)" qualitative_label=No
